This listing pairs compounds with measured CathD Selectivity.
# system.tested: human liver Cathepsin D (Homo sapiens (Human))
# Sequence (P07339 65-412): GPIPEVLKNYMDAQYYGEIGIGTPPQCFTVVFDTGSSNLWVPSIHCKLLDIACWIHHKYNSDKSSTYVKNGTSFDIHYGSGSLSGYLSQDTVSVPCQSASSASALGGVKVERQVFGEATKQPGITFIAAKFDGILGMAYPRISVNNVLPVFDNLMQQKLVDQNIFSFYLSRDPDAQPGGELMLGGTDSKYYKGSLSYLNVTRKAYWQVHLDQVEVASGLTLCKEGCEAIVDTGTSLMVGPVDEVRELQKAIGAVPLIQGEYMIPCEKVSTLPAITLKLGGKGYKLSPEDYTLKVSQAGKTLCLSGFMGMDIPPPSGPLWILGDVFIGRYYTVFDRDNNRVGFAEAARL
# Sequence (P07339 169-412): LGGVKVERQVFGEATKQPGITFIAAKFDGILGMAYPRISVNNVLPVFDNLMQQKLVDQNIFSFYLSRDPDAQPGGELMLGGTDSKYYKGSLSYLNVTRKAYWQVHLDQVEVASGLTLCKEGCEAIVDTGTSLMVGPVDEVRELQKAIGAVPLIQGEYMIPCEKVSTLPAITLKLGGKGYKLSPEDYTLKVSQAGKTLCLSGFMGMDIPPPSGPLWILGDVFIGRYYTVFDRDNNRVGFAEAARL
# experiment.notes: Human Cathepsin D FRET Assay
# Format: biochemical
# recorded.conditions: selectivity with respect to Cathepsin D vs BACE1
measurement.kind: CathD Selectivity

> print(dat)
                                    compound  experimental.value
 1  CCc1nc(N2C[C@H]3C(=O)N(C)C(=N)N[C@@]3(c3cc(F)c(F)cc3F)C2)nc(OC)c1F                  53
 2  COc1nc(N2C[C@H]3C(=O)N(C)C(=N)N[C@@]3(c3ccc(F)cc3Cl)C2)nc(C)c1F                 106
 3  COc1nc(N2C[C@H]3C(=O)N(C)C(=N)N[C@@]3(c3ccccc3F)C2)nc(C)c1Cl                 228
 4  COc1nc(N2C[C@H]3C(=O)N(C)C(=N)N[C@@]3(c3cccc(C#N)c3)C2)nc(C)c1F                1202
 5  COc1nc(N2C[C@H]3C(=O)N(C)C(=N)N[C@@]3(c3c(F)cc(F)cc3F)C2)nc(C)c1F                 773
 6  CCc1nc(N2C[C@H]3C(=O)N(C)C(=N)N[C@@]3(c3cc(F)ccc3F)C2)nc(OC)c1F                 596
 7  COc1nc(N2C[C@H]3C(=O)N(C)C(=N)N[C@@]3(c3ccc(F)c(Cl)c3F)C2)nc(C)c1F (racemic) [39 racemic]                 221
 8  CCc1nc(N2C[C@H]3C(=O)N(C)C(=N)N[C@@]3(c3ccc(F)cc3F)C2)nc(OC)c1F                 310
 9  COc1nc(N2C[C@H]3C(=O)N(C)C(=N)N[C@@]3(c3cc(F)ccc3F)C2)nc(C2CC2)c1Cl                 634
10  COc1nc(N2C[C@H]3C(=O)N(C)C(=N)N[C@@]3(c3ccc(F)cc3F)C2)nc(OC)c1F                 583
11  COc1nc(N2C[C@H]3C(=O)N(C)C(=N)N[C@@]3(c3ccc(F)cc3)C2)nc(C2CC2)c1F                  50
12  CCc1nc(N2C[C@H]3C(=O)N(C)C(=N)N[C@@]3(c3ccc(F)cc3)C2)nc(OC)c1F                 163
13  COc1nc(N2C[C@H]3C(=O)N(C)C(=N)N[C@@]3(c3ccc(F)cc3F)C2)nc(C2CC2)c1F                 209
14  COc1nc(N2C[C@H]3C(=O)N(C)C(=N)N[C@@]3(c3cccc(Cl)c3)C2)nc(C)c1F                  43

* * *

# system.tested: CYP3A4 (Homo sapiens (Human))
# Sequence (P08684 whole entry): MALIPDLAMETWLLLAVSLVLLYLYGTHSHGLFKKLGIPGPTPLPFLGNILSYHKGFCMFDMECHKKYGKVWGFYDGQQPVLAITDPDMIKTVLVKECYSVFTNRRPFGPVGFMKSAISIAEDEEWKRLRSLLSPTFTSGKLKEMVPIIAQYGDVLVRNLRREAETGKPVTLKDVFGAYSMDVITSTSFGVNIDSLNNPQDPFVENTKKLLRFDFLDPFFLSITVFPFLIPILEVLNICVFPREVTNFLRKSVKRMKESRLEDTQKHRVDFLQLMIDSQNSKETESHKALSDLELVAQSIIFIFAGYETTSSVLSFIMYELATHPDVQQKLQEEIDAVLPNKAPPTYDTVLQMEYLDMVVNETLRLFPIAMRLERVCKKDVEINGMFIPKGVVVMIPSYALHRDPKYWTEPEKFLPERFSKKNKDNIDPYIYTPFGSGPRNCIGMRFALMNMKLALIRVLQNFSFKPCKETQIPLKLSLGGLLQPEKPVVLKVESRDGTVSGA
# experiment.notes: CYP Inhibition Assay, CYP3A4;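 further: CYP probe substrate held near its Km, inhibition judged from metabolite formation quantified by LC-MS/MS against a standard curve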
# Assay type: in vitro ADME
# recorded.conditions: human liver microsomes, co-incubation; read-out: CYP 3A4 IC50 co
pIC50: −log10 of the molar value.
measurement.kind: pIC50

> print(dat)
                                    molecule  measurement.kind  experimental.value
 1  CCc1nc(N2C[C@H]3C(=O)N(C)C(=N)N[C@@]3(c3ccc(F)cc3)C2)nc(OC)c1F [Example 30]             pIC50              < 4.52
 2  COc1nc(N2C[C@H]3C(=O)N(C)C(=N)N[C@@]3(c3cc(F)ccc3F)C2)nc(C2CC2)c1Cl [Example 35]             pIC50              < 4.70
 3  Cc1nc(N2C[C@H]3C(=O)N(C)C(N)=N[C@@]3(c3ccccc3)C2)nc(C)c1F (racemic) [23 racemic]             pIC50              < 4.52
 4  CCc1nc(N2C[C@H]3C(=O)N(C)C(=N)N[C@@]3(c3ccc(F)cc3F)C2)nc(OC)c1F [Example 32]             pIC50              < 4.70
 5  COc1nc(N2C[C@H]3C(=O)N(C)C(=N)N[C@@]3(c3cccc(C#N)c3)C2)nc(C)c1F [Example 36]             pIC50              < 4.70
 6  CCc1nc(N2C[C@H]3C(=O)N(C)C(=N)N[C@@]3(c3cc(F)ccc3F)C2)nc(OC)c1F [Example 31]             pIC50              < 4.70
 7  COc1nc(N2C[C@H]3C(=O)N(C)C(=N)N[C@@]3(c3c(F)cc(F)cc3F)C2)nc(C)c1F [Example 13]             pIC50              < 4.70
 8  Cc1nc(N2C[C@H]3C(=O)N(C)C(=N)N[C@@]3(c3ccc(F)cc3)C2)nc(C)c1F [Example 28]             pIC50              < 4.52
 9  COc1nc(N2C[C@H]3C(=O)N(C)C(=N)N[C@@]3(c3ccc(F)cc3F)C2)nc(OC)c1F [Example 10]             pIC50              < 4.52
10  CCc1nc(N2C[C@H]3C(=O)N(C)C(=N)N[C@@]3(c3ccccc3)C2)nc(OC)c1F (racemic) [6 racemic]             pIC50              < 4.52
11  COc1nc(N2C[C@H]3C(=O)N(C)C(=N)N[C@@]3(c3ccc(F)cc3)C2)nc(OC)c1F [Example 27]             pIC50              < 4.52
12  CCc1nc(N2C[C@H]3C(=O)N(C)C(N)=N[C@@]3(c3ccccc3)C2)nc(C2CC2)c1Cl (racemic) [26 racemic]             pIC50              < 4.70
13  Cc1nc(N2C[C@H]3C(=O)N(C)C(N)=N[C@@]3(c3ccccc3)C2)nc(C2CC2)c1F (racemic) [25 racemic]             pIC50              < 4.70
14  CCOc1nc(N2C[C@H]3C(=O)N(C)C(N)=N[C@@]3(c3ccccc3)C2)nc(C)c1F (racemic) [4 racemic]             pIC50              < 4.52

* * *

# system.tested: hERG (Homo sapiens (Human))
# Sequence (Q12809 whole entry): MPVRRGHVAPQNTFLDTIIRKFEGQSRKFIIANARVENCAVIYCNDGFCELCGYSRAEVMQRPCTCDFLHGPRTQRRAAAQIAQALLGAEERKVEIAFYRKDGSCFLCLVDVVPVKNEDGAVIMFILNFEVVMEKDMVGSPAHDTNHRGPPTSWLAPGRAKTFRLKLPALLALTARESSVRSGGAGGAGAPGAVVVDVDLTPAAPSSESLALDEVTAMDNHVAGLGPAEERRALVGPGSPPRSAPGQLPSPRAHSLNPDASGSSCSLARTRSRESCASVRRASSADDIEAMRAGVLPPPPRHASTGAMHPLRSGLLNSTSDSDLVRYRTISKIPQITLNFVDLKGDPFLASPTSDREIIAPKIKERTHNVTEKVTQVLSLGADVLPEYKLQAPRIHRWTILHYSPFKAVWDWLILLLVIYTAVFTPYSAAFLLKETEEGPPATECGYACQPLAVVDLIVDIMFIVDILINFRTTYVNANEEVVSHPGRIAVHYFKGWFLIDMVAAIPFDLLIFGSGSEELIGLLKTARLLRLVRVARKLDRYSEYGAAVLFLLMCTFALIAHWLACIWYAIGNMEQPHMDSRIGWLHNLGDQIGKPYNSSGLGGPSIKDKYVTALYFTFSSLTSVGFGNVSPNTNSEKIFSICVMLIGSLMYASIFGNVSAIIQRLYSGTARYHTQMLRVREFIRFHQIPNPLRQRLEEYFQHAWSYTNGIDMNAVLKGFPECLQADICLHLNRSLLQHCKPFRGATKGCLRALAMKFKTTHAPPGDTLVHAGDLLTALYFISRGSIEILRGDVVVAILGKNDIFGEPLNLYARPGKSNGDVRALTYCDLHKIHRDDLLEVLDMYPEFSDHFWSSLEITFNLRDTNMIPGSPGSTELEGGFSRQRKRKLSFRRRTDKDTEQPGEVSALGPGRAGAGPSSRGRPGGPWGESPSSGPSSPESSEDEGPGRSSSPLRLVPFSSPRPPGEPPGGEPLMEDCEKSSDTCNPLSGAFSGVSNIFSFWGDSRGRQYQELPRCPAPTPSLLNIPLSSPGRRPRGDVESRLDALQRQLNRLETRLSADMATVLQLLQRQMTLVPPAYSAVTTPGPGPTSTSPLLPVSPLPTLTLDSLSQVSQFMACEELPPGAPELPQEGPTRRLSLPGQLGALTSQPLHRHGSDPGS
# experiment.notes: hERG screening, IonWorks Quattro (hERG L929 cells)
# Type: cell-based
# recorded.conditions: L929 cells expressing hERG, 10 uM, read-out: HERG Ionworks % Inhib 10 uM
measurement.kind: inhibition at 5 min, 10 uM

> print(dat)
                                  smiles.str            measurement.kind  experimental.value
 1  Cc1nc(N2C[C@H]3C(=O)N(C)C(=N)N[C@@]3(c3cc(F)ccc3F)C2)nc(C2CC2)c1F  inhibition at 5 min, 10 uM                 73%
 2  COc1nc(N2C[C@H]3C(=O)N(C)C(=N)N[C@@]3(c3ccc(F)cc3F)C2)nc(C2CC2)c1Cl  inhibition at 5 min, 10 uM                 20%
 3  CCc1nc(N2C[C@H]3C(=O)N(C)C(=N)N[C@@]3(c3cc(F)ccc3F)C2)nc(OC)c1F  inhibition at 5 min, 10 uM                 88%
 4  COc1nc(N2C[C@H]3C(=O)N(C)C(N)=N[C@@]3(c3cc(F)c(F)cc3F)C2)nc(C)c1F  inhibition at 5 min, 10 uM                 89%
 5  COc1nc(N2C[C@H]3C(=O)N(C)C(=N)N[C@@]3(c3cc(F)ccc3F)C2)nc(OC)c1F  inhibition at 5 min, 10 uM                 71%
 6  CCc1nc(N2C[C@H]3C(=O)N(C)C(=N)N[C@@]3(c3cc(F)c(F)cc3F)C2)nc(OC)c1F  inhibition at 5 min, 10 uM                 96%
 7  CCc1nc(N2C[C@H]3C(=O)N(C)C(=N)N[C@@]3(c3ccc(F)cc3)C2)nc(OC)c1F  inhibition at 5 min, 10 uM                 31%
 8  COc1nc(N2C[C@H]3C(=O)N(C)C(=N)N[C@@]3(c3ccc(F)cc3Cl)C2)nc(C)c1F  inhibition at 5 min, 10 uM                 93%
 9  COc1nc(N2C[C@H]3C(=O)N(C)C(=N)N[C@@]3(c3cc(F)ccc3F)C2)nc(C2CC2)c1F  inhibition at 5 min, 10 uM                 65%
10  COc1nc(N2C[C@H]3C(=O)N(C)C(=N)N[C@@]3(c3cccc(C#N)c3)C2)nc(C)c1F  inhibition at 5 min, 10 uM                 37%
11  COc1nc(N2C[C@H]3C(=O)N(C)C(=N)N[C@@]3(c3cc(Cl)ccc3F)C2)nc(C)c1F  inhibition at 5 min, 10 uM                 89%
12  COc1nc(N2C[C@H]3C(=O)N(C)C(=N)N[C@@]3(c3cc(F)ccc3Cl)C2)nc(C)c1F  inhibition at 5 min, 10 uM                 50%
13  COc1nc(N2C[C@H]3C(=O)N(C)C(=N)N[C@@]3(c3ccc(F)cc3F)C2)nc(C2CC2)c1F  inhibition at 5 min, 10 uM                 63%
14  COc1nc(N2C[C@H]3C(=O)N(C)C(=N)N[C@@]3(c3cc(F)ccc3F)C2)nc(C2CC2)c1Cl  inhibition at 5 min, 10 uM                 23%
15  COc1nc(N2C[C@H]3C(=O)N(C)C(=N)N[C@@]3(c3ccc(F)cc3)C2)nc(OC)c1F  inhibition at 5 min, 10 uM                 51%
16  CCc1nc(N2C[C@H]3C(=O)N(C)C(=N)N[C@@]3(c3ccc(F)cc3F)C2)nc(OC)c1F  inhibition at 5 min, 10 uM                 95%
